experiment: solvent given as SMILES; conditions: in CCOC(C)=O
parameter: emission maximum (nm)
Express your answer in nm, writing the number without its unit.

>>> df
                              line_notation         parameter  observed_value
0          Nc1ccc2c(c1)C(=O)c1ccc(N)cc1C2=O  emission maximum           547.6
1       [C-]#[N+]c1ccc(-c2ccc(N(C)C)cc2)cc1  emission maximum             406
2  CCC1=C(C)C2=C(C)c3c(I)c(I)cn3[B-](F)(F)[N+]2=C1C  emission maximum             533

# context switch: different molecule, same emission maximum
IN: Tell me emission maximum reported for CCCSc1ccc2n1[B-](F)(F)[N+]1=CC=CC1=C2c1ccccc1
OUT: 589

###

# maps each entry to its emission maximum
experiment: solvent given as SMILES; settings: in CO
Provide the reading as a plain figure in nm.

Field: example entries. Status: answers known.
line-notation	unit-descriptor	emission maximum
CCOC(=O)c1sc(SC)c2c(=O)n(C)nnc12	nm	508
O=C1C=Cc2cc3ccccc3c(=O)n21	nm	450
COc1nc(Nc2ccc3c4c(cccc24)C(=O)c2ccccc2-3)nc(OC)n1	nm	586.85

IN: State its emission maximum: CC1(C)C2=[N+](CCCCCC(=O)NCCNC(=O)CCCCCN3/C(=C/C=C/C=C/C=C/2)C(C)(C)c2cc(S(=O)(=O)[O-])ccc23)c2ccc(S(=O)(=O)[O-])cc21
OUT: 778

IN: Output emission maximum of COC(=O)C[C@H](Cc1c[nH]c2ccccc12)NC(=O)[C@H](CC(=O)N[C@@H](CC1=CCc2ccccc21)C(=O)OC)NC(=O)[C@H](Cc1c[nH]c2ccccc12)NC(=O)OC(C)(C)C
OUT: 338

IN: In one line, give reported emission maximum of the entry O=c1[nH]c(=O)c2scc([C@H]3C[C@H](O)[C@@H](CO)O3)c2[nH]1 .
OUT: 351

IN: Identify the reported emission maximum for the following entry. COc1cc(/C=C/C(=O)CC(=O)/C=C/c2ccc(O)c(OC)c2)ccc1O
OUT: 560

IN: Give the measured emission maximum for Cc1cc(C2(c3cc(C)c(O)c(Br)c3)OS(=O)(=O)c3ccccc32)cc(Br)c1O
OUT: 502

###

assay: solvent given as SMILES; conditions: in OCCOCCO
Property: emission maximum; scope: individual compounds
Enter your answer as a number in nm; do not include the unit.

Please review the entries below; each comes with its answer.
In [3]: df
Out[3]:
                                   compound  unit_descriptor  observed_value
0  OC1(c2ccc(-c3cccs3)s2)CCC(c2ccccc2)CC1 (centres undefined)               nm             384
1            O=CC1=C(c2ccc(-c3cccs3)s2)CCC1               nm             527
2  CC1CC=C(c2ccc(-c3ccc(C#N)s3)s2)CC1 (centres undefined)               nm             451

Now turn to the next compound.
IN: Consider the compound OC1(c2ccc(-c3cccs3)s2)CCCCC1 and give its recorded emission maximum.
OUT: 447

###

experiment: solvent given as SMILES; details: in ClCCl
Hi! Just check whether emission maximum is below 500 nm. Below gives true, equal or above gives false.

Example cases with answers are listed next.
compound	assigned-category
CCCCCCn1c(=O)c2c3[nH]c4ccccc4[nH]c3c3c(=O)n(CCCCCC)c(=O)c3c2c1=O	false
CCCc1c(C(=O)c2ccc3c4c(cccc24)-c2cccc4c2C3CC=C4)c2ccc3cccc4c5cccc6ccc1c(c65)c2c34 (stereo not given)	false
CCCCOc1ccc(-c2oc3c(-c4ccc(OCCCC)cc4)c4n(c3c2-c2ccc(OCCCC)cc2)[B-](F)(F)[N+]2=Cc3c(-c5ccc(OCCCC)cc5)c5oc(-c6ccc(OCCCC)cc6)c(-c6ccc(OCCCC)cc6)c5n3[B-](F)(F)[N+]2=C4)cc1	false
Fc1ccc(C#Cc2nc(C#Cc3ccc(F)cc3)c(C#Cc3ccc(F)cc3)c(C#Cc3ccc(F)cc3)c2C#Cc2ccc(F)cc2)cc1	true
F[B-]1(F)n2c(Cl)c(Cl)c(Br)c2C(Oc2ccccc2)=C2C(Br)=C(Cl)C(Cl)=[N+]21	false
CN1CCN(c2cccc(/C=C/c3ncc(-c4ccc(OCc5ccccc5)c(OCc5ccccc5)c4)o3)c2)CC1	true
Cc1nc(-c2cc(F)ccc2O)n2c1CCCC2	true
C(S/C=C/c1ccc(/C=C/SC=C2CCCCCC2)cc1)=C1CCCCCC1	true

Moving on to the next compound.
IN: Decide: emission maximum of CCn1c2sccc2c2c3nsnc3c3c4ccsc4n(CC)c3c21 strictly below 500 nm?
OUT: false

###

assay: solvent given as SMILES; conditions: in CO
parameter: emission maximum

compound	observed-value
CN(C)c1ccc(/C=C/c2cc[n+](CCCCCCCCCCCC[n+]3ccc(/C=C/c4ccc(N(C)C)cc4)cc3)cc2)cc1	597 nm
c1ccc2cc(-n3c4ccccc4c4ccccc43)ccc2c1	382 nm
OCC1O[C@@H](Cc2cc(O)cc(/C=C/c3ccc(O)c(O)c3)c2)[C@H](O)[C@@H](O)[C@@H]1O (some centres not stated)	394 nm
O=C1C2=C(O[B-](F)(F)[n+]3c2ccc2ccccc23)c2cccc3c(N4CCOCC4)ccc1c23	564 nm
CCC1=C(C)C(=O)n2c1cc1c(C)c(CC(=O)OC)c(C)n1c2=O	525 nm
CCC1(CC)c2cc(-c3ccc(C(C)(C)C)cc3)ccc2-c2ccc(-c3ccc4c(c3)C(CC)(CC)c3cc(-c5ccc6c(c5)C(CC)(CC)c5cc(-c7ccc(C(C)(C)C)cc7)ccc5-6)ccc3-4)cc21	402.3 nm

Now turn to the next compound.
IN: Quickly give me recorded emission maximum for C#CCOc1ccc(/C=C/C2=[N+]3C(=C(c4ccc(N(CC)CC)cc4)c4c(C)cc(/C=C/c5ccc(OCC(=O)OC)cc5)n4[B-]3(F)F)C(C)=C2)cc1
OUT: 655 nm

###

test: solvent given as SMILES; details: in C1CCCCC1
parameter: emission maximum (nm)
State the answer as a number, implicitly in nm.

Before answering, review these 10 worked examples.
compound	emission maximum / nm
CCCCC#Cc1cccc2cc(CCCC)c3cc(-c4cc[b-]5c(c4)c(CCCC)cc4cccc(C#CCCCC)[n+]54)cc[b-]3[n+]12	598
COC(=O)[C@H](Cc1ccc2oc3c(c2c1)=CC1=C(c2ccc(OC)cc2)c2cc4c5cc(C[C@H](NC(=O)OC(C)(C)C)C(=O)OC)ccc5oc4n2[B-](F)(F)[N+]=31)NC(=O)OC(C)(C)C	596.5
CCCCn1c2c(-c3ccc(N(c4ccccc4)c4ccccc4)cc3)cc(C#N)cc2c2cc(C#N)cc(-c3ccc(N(c4ccccc4)c4ccccc4)cc3)c21	404
CN(C)c1cccc2c1C(=O)c1ccccc1C2=O	566
Cc1ccccc1C1=C2C=c3c(oc4ccc(C(C)(C)C)cc34)=[N+]2[B-](F)(F)n2c1cc1c3cc(C(C)(C)C)ccc3oc12	602
N#Cc1c(N2CCCCC2)cc(-c2ccc(O)cc2)c2c1-c1cccc3cccc-2c13	527
Cc1ccc(C2=C3C=CC(Cl)=[N+]3[B-](F)(F)n3c(Cl)ccc32)cc1	525
CC1=[N+]2C(=C(c3ccccc3C)c3ccc(C)n3[B-]2(F)F)C=C1c1cc2n(c1)[B-](F)(F)[N+]1=CC=CC1=C2c1c(C)cc(C)cc1C	640
CCNc1ccc2c(C(F)(F)F)cc(=O)oc2c1	417
Cc1nc(-c2ccccc2)c2ccccn12	475

Attention now shifts to the item below.
IN: Quick one: give measured emission maximum for CC(=O)c1ccc(-c2nc3ccc(N(C)C)c(Cl)c3s2)cc1
OUT: 424

###

assay: solvent given as SMILES; conditions: in CCOC(C)=O
Recorded emission maximum by entry
Write the answer as a number in nm, unit excluded.

Reference set (5 entries):
molecule	parameter	observed-value
CCCCCCCCCCCCOc1ccc(C#CC(C#Cc2ccc(OCCCCCCCCCCCC)cc2)=Cc2cc(C=C(C#Cc3ccc(OCCCCCCCCCCCC)cc3)C#Cc3ccc(OCCCCCCCCCCCC)cc3)cc(C=C(C#Cc3ccc(OCCCCCCCCCCCC)cc3)C#Cc3ccc(OCCCCCCCCCCCC)cc3)c2)cc1	emission maximum	428
CCn1c2ccccc2c2cc(C#Cc3cc(C#Cc4ccc5c(c4)c4ccccc4n5CC)nc(N4CCCCC4)n3)ccc21	emission maximum	446
F[B-]1(F)OC(c2ccccc2)=Nc2sc(-c3ccccc3)n[n+]21	emission maximum	411
CN(C)c1ccc(C#Cc2ccccc2)cc1	emission maximum	382.5
CC1=[N+]2C(=C(c3ccccc3C)c3ccc(C)n3[B-]2(F)F)C=C1c1cc2n(c1)[B-](F)(F)[N+]1=CC=CC1=C2c1c(C)cc(C)cc1C	emission maximum	679

IN: Supply reported emission maximum belonging to this molecule: OCC1O[C@@H](Cc2cc(O)cc(/C=C/c3ccc(O)c(O)c3)c2)[C@H](O)[C@@H](O)[C@@H]1O (some centres not stated)
OUT: 372

IN: Tell me emission maximum reported for CN(C)c1ccc(C2=Cc3cccc[n+]3[B-](F)(F)O2)cc1
OUT: 499
